Target: human RNR (histidine tagged human M1 and human M2 proteins) (Homo sapiens, UniProt P23921)
Sequence (P23921 1-792): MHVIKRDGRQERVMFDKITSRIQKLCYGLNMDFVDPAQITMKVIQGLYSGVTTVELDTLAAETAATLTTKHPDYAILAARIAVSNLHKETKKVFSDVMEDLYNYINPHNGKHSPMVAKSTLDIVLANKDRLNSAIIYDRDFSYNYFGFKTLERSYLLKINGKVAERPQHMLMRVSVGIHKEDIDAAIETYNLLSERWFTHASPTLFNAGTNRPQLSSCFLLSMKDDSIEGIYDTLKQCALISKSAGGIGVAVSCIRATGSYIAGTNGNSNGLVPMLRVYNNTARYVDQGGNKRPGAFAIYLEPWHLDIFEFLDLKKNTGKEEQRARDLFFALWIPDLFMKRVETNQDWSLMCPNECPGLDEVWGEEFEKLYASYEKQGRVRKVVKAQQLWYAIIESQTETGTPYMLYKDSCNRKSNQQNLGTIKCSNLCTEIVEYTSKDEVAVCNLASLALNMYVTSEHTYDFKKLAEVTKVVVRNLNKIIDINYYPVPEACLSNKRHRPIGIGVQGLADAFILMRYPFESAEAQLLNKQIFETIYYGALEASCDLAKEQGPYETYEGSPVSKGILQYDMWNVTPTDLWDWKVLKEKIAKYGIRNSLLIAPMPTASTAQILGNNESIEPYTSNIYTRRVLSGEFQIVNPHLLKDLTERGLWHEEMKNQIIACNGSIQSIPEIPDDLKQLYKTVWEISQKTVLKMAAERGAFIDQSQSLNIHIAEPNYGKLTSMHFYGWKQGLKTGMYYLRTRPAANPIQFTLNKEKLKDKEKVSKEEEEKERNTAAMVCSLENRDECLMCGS
Field: IC50. Provide a value for each of the compounds that follow.
Note: unit nM is implicit; provide only the numeric part.

Param item = Cc1ccc(F)c([C@@H](C)[C@H](NS(=O)(=O)c2ccc(Cl)c3c2C(O)CCC3)c2n[nH]c(=O)o2)c1C (stereo partly shown) ; retrieve measured IC50. 910

Also `Cc1ccc(F)c([C@@H](C)[C@H](NS(=O)(=O)c2ccc(F)c(S(C)(=O)=O)c2)c2n[nH]c(=O)o2)c1C` , if possible. 190

Also Cc1c(Br)ccc(F)c1[C@@H](C)[C@H](NS(=O)(=O)c1ccc(Cl)c2c1OCCC2O)c1n[nH]c(=O)o1 (single isomer, unassigned) [Example 243A] , if possible. 70

Also `Cc1ccc(F)c([C@@H](C)[C@H](NS(=O)(=O)c2ccc(F)c3c2OCCC3=O)c2n[nH]c(=O)o2)c1C` , if possible. 160

Also `C[C@H](c1cccc2c1CCCC2)[C@H](NS(=O)(=O)c1ccc(Cl)cn1)c1n[nH]c(=O)o1` , if possible. 770

Also `Cc1ccc(F)c([C@@H](C)[C@H](NS(=O)(=O)c2ccc3[nH]ncc3c2)c2n[nH]c(=O)o2)c1C` , if possible. 410

Also `COc1cc(Cl)ccc1S(=O)(=O)N[C@H](c1n[nH]c(=O)o1)[C@H](C)c1c(F)ccc(-c2ccc(Cl)cc2)c1C` , if possible. 490

Also `COc1cc(Cl)ccc1S(=O)(=O)N[C@H](c1n[nH]c(=O)o1)[C@H](C)c1c(F)ccc(-c2cn[nH]c2)c1C` , if possible. 160

Also COc1c(S(=O)(=O)N[C@H](c2n[nH]c(=O)o2)[C@H](C)c2c(F)ccc(C)c2C)ccc(Cl)c1C(C)O (single isomer, unassigned) [Example 208A] , if possible. 100

Also `Cc1ccc(F)c([C@@H](C)[C@H](NS(=O)(=O)c2cc(C(=O)O)c(Cl)cc2C(N)=O)c2n[nH]c(=O)o2)c1C` , if possible. 190

Also Cc1c(Cl)ccc(F)c1[C@@H](C)[C@H](NS(=O)(=O)c1ccc(Cl)c2c1OCCC2(C)N)c1n[nH]c(=O)o1 (single isomer, unassigned) [Example 330A] , if possible. 120

Also Cc1ccc(F)c([C@@H](C)[C@H](NS(=O)(=O)c2ccc(F)c3c2OCCC3O)c2n[nH]c(=O)o2)c1C (single isomer, unassigned) [Example 230B] , if possible. 50

Also CC(=O)OC1(C)CCOc2c(S(=O)(=O)N[C@H](c3n[nH]c(=O)o3)[C@H](C)c3c(F)ccc(C)c3C)ccc(Cl)c21 (stereo partly shown) , if possible. 140

Also `Cc1ccc(F)c([C@@H](C)[C@H](NS(=O)(=O)c2cc([N+](=O)[O-])c(Cl)cc2C(N)=O)c2n[nH]c(=O)o2)c1C` , if possible. 130

Also Cc1ccc(F)c([C@@H](C)[C@H](NS(=O)(=O)c2ccc(F)c3c2OCCC3O)c2n[nH]c(=O)o2)c1C (single isomer, unassigned) [Example 230A] , if possible. 120

Also COc1cc(Cl)ccc1S(=O)(=O)N[C@H](c1n[nH]c(=O)o1)[C@H](C)c1cccc2c1CC(C)C2 (stereo partly shown) , if possible. 700

Also `COc1cc(C(N)=O)c(S(=O)(=O)N[C@H](c2n[nH]c(=O)o2)[C@H](C)c2c(F)ccc(C)c2C)cc1OC` , if possible. 360

Also `COc1cc(Cl)ccc1S(=O)(=O)N[C@H](c1n[nH]c(=O)o1)[C@H](C)c1c(F)ccc(-c2cccnc2)c1C` , if possible. 340

Also Cc1c(Br)ccc(F)c1[C@@H](C)[C@H](NS(=O)(=O)c1ccc(F)c2c1OCCC2(C)O)c1n[nH]c(=O)o1 (single isomer, unassigned) [Example 227B] , if possible. 90

Also `COc1cc(Cl)ccc1S(=O)(=O)N[C@H](c1n[nH]c(=O)o1)[C@H](C)c1c(F)ccc(-c2ccn(C)n2)c1C` , if possible. 240

Also `C[C@H](c1cccc2c1CCC2)[C@H](NS(=O)(=O)c1ccc(Br)cc1F)c1n[nH]c(=O)o1` , if possible. 990

Also `CC(=O)c1cc(Cl)ccc1S(=O)(=O)N[C@H](c1n[nH]c(=O)o1)[C@H](C)c1c(F)ccc(C)c1C` , if possible. 270

Also `CCc1ccc(F)c([C@@H](C)[C@H](NS(=O)(=O)c2ccc(Cl)cc2C(N)=O)c2n[nH]c(=O)o2)c1C` , if possible. 180

Also `Cc1ccc(F)c([C@@H](C)[C@H](NS(=O)(=O)c2ccc(Cl)c3c2C(=O)CCC3)c2n[nH]c(=O)o2)c1C` , if possible. 240

Also `Cc1ccc(F)c([C@@H](C)[C@H](NS(=O)(=O)c2cc(C(C)(C)O)ccc2C(N)=O)c2n[nH]c(=O)o2)c1C` , if possible. 60
